Tested on: SK-OV-3 ovarian
Assay: NCI tumour cell line growth inhibition, 48 h
parameter: TGI (µM)
Numbers only, in µM.

CCCCCC(/C=C/[C@@H]1[C@@H](C(O)CCCCCC(=O)OC)C(=O)C[C@H]1O[Si](C)(C)C(C)(C)C)OCOCCOC (stereo not given in full); 34

Next compound, TGI to be filled in.
# TGI lookup, item CN(C)CCS(=O)(=O)Nc1cc(-c2ccc3ncnc(Nc4ccc(F)c(Cl)c4)c3c2)cnc1Cl 1.64

* * *

Tested on: CAKI-1 renal
Experiment: NCI tumour cell line growth inhibition, 48 h; in the data active = GI50 below about 0.43 µM; inactive = the rest
# valid calls are active, inactive; nothing else

// known answers, use as guide
Cc1cc(-c2ccco2)cc(C)c1/C=C/c1cncc(-c2nn[nH]n2)c1; inactive
O=S(=O)(NCCCNc1nccc(-c2c(-c3cccc(F)c3)nc3occn23)n1)c1cccc2ccccc12; inactive
Cc1nn2c(-c3nc4cc(Cl)c(Cl)cc4[nH]3)c(-c3ccc(F)cc3)nc2s1; inactive
CN(C)c1ccc2c(c1)OC(N)=C(C#N)C2c1ccc2c(c1)CCCN2C (stereo not given); inactive
Cc1ccc(O)cc1Nc1ccnc2cc(-c3ccccn3)ccc12; inactive
N=C(N)c1ccc(OCCCCCOc2ccc(C(=N)N)cc2)cc1; inactive

Returns: the outcome recorded for COc1cc(OC)c(/C=C/C(=O)c2c(N)cc(OC)cc2OC)c(OC)c1 in this assay. active

Returns: the outcome recorded for CC/C(=C(/c1ccc(/C=C/C(=O)O)cc1)c1ccc2[nH]ncc2c1)c1ccc(F)cc1Cl in this assay. inactive

Returns: the outcome recorded for O=C(CN(/C=C/C(=O)C(F)(F)F)c1ccccc1)c1ccc(F)cc1 in this assay. inactive

Returns: the outcome recorded for Cc1ccc(C(=O)N2C/C(=C/c3ccccc3)C(=O)/C(=C/c3ccccc3)C2)cc1 in this assay. inactive

* * *

System: CCRF-CEM leukemia
Experiment: NCI tumour cell line growth inhibition, 48 h; in the data active = GI50 below about 0.43 µM; inactive = the rest
# valid calls are active, inactive; nothing else

// known answers, use as guide
C=CC[PH+](c1ccccc1)c1ccccc1.C=CC[PH+](c1ccccc1)c1ccccc1.[Pt+2].[S-]c1ncccn1.[S-]c1ncccn1; inactive
CC1CCC2c3c([nH]c4ccccc34)C3C(=O)N(c4ccccc4)C(=O)C3C2C1 (centres undefined); inactive
CN(C)CCS(=O)(=O)Nc1cc(-c2ccc3ncnc(Nc4ccc(F)c(Cl)c4)c3c2)cnc1Cl; active

Returns: the outcome recorded for O=S(=O)(NCCCNc1nccc(-c2c(-c3cccc(F)c3)nc3occn23)n1)c1cccc2ccccc12 in this assay. inactive

Returns: the outcome recorded for CC1=NN(c2nc(N)nc(/C=C\c3ccccc3)n2)C(C)(C)C1 in this assay. inactive

Returns: the outcome recorded for COC(=O)c1ccc2c(c1)C(=O)c1c-2n(CCCCl)c(=O)c2cc(OC)c(OC)cc12 in this assay. inactive

Returns: the outcome recorded for CCN(CC)CCS(=O)(=O)CCNc1ccnc2cc(Cl)ccc12 in this assay. inactive

Returns: the outcome recorded for CCN(CC)C(=S)SSCCO in this assay. inactive

Returns: the outcome recorded for CCN(CC)C(=O)CCCCCn1c2ccccc2c2c3c(c4c5ccccc5[nH]c4c21)C(=O)N(O)C3=O in this assay. inactive

* * *

System: NCI-H226 lung
Experiment: NCI tumour cell line growth inhibition, 48 h
parameter: GI50

The cases that follow already have their GI50 on record.
O=C(/C=C/c1cccc(Oc2ccc(Cl)cc2)c1)c1ccccc1; 122 µM
Cc1ccc(-c2nc(C(Cl)Cl)nc3cc(C)nn23)cc1; > 100 µM
CC1(C)N=C(N)N=C(N)N1c1ccc(OCCCCNC(=O)Nc2cccc(S(=O)(=O)F)c2)c(Cl)c1; 7.95 µM
Cc1n(Cc2ccc3ccccc3n2)cc[n+]1Cc1ccc2ccccc2c1; 0.965 µM

# GI50 lookup, item COC(=O)C1=Nc2ccc(F)cc2/C1=C/c1sc(=S)[nH]c1O 0.959 µM

* * *

Tested on: IGROV1 ovarian
Assay: NCI tumour cell line growth inhibition, 48 h
Where a SMILES comes first, the peptide text is derived from it. The star is where a group is joined. Boc = CC(C)(C)OC(=O)*; tBu = CC(C)(C)*
parameter: TGI

The cases that follow already have their TGI on record.
Clc1cccc2[nH]ncc12; > 100 µM
NC(N)=N/N=C\c1c(-c2ccccc2)nc2sccn12; 27 µM
CC(=O)O[C@H]1C[C@@H](OC(C)=O)[C@@](C)(O)[C@@H]2[C@@H](OC(C)=O)[C@@]3(O)[C@H](/C=C(/CCl)[C@H]4O[C@H]4[C@@H](OC(C)=O)[C@@]12C)OC(=O)[C@@H]3C; > 25 µM

Consider the following items and state reported TGI for each.
1. Cc1cc(-c2ccco2)cc(C)c1/C=C/c1cncc(-c2nn[nH]n2)c1
2. COc1ncc2cc1NS(=O)(=O)c1cccc(c1)C(=O)NCC1=CC=C(S1)c1ncnc3c1SC2=C3C
3. CC(=O)OC1CC[C@@]2(C)C(=CC[C@@H]3[C@@H]2CC[C@]2(C)C(OC(C)=O)[C@H](n4ccnc4)C[C@@H]32)C1 (some centres not stated)
4. CN(c1ccc(NC(=O)NCCN2CCOCC2)cc1)c1ccnc(Nc2ccc(CS(C)(=O)=O)cc2)n1

1: > 25 µM; 2: 1.6 µM; 3: > 100 µM; 4: > 25 µM

Consider the following items and state reported TGI for each.
1. NC(N)=N/N=C/c1c(-c2ccc(Cl)cc2)nc2sc(Cl)cn12
2. Cc1cc(NS(=O)(=O)c2ccc(NC(=O)c3ccc4nc5ccccc5c(Nc5ccc(S(=O)(=O)Nc6cc(C)on6)cc5)c4c3)cc2)no1
3. Cc1cc2c(cc1C)[n+](=O)c(C(=O)/C=C/c1ccccc1[N+](=O)[O-])c(C)n2[O-]
4. CCc1c(C#N)c(SC(C(N)=O)c2ccccc2)nc(N2CCC(N)CC2)c1C#N (configuration not stated)
5. CC(=O)c1sc2c(c1O)c(=O)n(-c1ccccc1)c(=S)n2-c1ccccc1

1. 2.04 µM
2. > 50 µM
3. > 100 µM
4. 27.9 µM
5. > 100 µM

Consider the following items and state reported TGI for each.
1. COc1cccc(Nc2nc(NS(=O)(=O)c3cc(C)c(Cl)cc3S)n[nH]2)c1
2. COCCOCCOCCC(=O)NC1CC2CCC1(C)C2(C)C (configuration not stated)
3. O=C(Nc1nc2c(s1)CCc1c-2c(Br)n(Cc2ccccc2)c1Br)c1ccccc1
4. C=C(C)[C@@H]1CC[C@]2(C(=O)n3ccnc3)CC[C@]3(C)[C@H](CC[C@@H]4[C@@]5(C)CCCNC(C)(C)[C@@H]5CC[C@]43C)[C@@H]12

["> 100 µM", "> 100 µM", "33.4 µM", "3.27 µM"]

Consider the following items and state reported TGI for each.
1. O=C(/C=C/c1ccc(Cl)cc1)c1ccc(Cl)s1
2. COc1cc(S(=O)(=O)Nc2ccc(-c3csc(/N=C\c4cccs4)n3)cc2)ccc1Cl
3. CC(OC(C)(C)C)C(NC(=O)C(N)CCCCNC(=O)OC(C)(C)C)C(=O)NC(Cc1ccccc1)C(=O)O (configuration not stated) (H-Lys(Boc)-Thr(tBu)-Phe-OH; configuration not given here)
4. CC1(CCCCO)C=CC(S(=O)(=O)c2ccccc2)CC1 (configuration not stated)
5. CC1=CC(=O)c2c(O)c3c(c(O)c2C1=O)C1C(O)C(C3=O)C23C(=O)c4c(O)c(C)cc(O)c4C(O)=C2C(=O)CC(O)C13 (configuration not stated)

1: > 100 µM; 2: > 100 µM; 3: > 100 µM; 4: 12.1 µM; 5: 6.58 µM

Consider the following items and state reported TGI for each.
1. C/C(=N\Nc1nc2ccccc2n1C)c1ccc2ccccc2n1
2. CC(N)=O.[Cl][Pt][Cl].[NH-]c1ccn(C2OC(CO)C(O)C2O)c(=O)n1 (configuration not stated)

2.74 µM
> 100 µM

Consider the following items and state reported TGI for each.
1. CCOC(=O)C1=C(C)N(CC(C)C)C2(O)C(OC)CC(=O)C3C(=O)N(c4ccccc4)C(=O)C132 (configuration not stated)
2. C/C(CC(=O)Nc1cccc(Cl)c1C)=N\N=C(N)N
3. Cn1c(CC(O)c2nc3ccccc3n2C)nc2ccccc21 (configuration not stated)
4. COc1ccc2c(C(=O)c3c(C)n(CCN4CCOCC4)c4ccccc34)cccc2c1
5. COc1cccc(N2C(=O)C3CC(CC(C)(C)C)c4c([nH]c5ccccc45)C3C2=O)c1 (configuration not stated)
6. CCOC(=O)C(C)(Cc1ccc(O)cn1)NC(=O)c1ccccc1 (configuration not stated)
7. COC1(c2ccccc2)NC(=S)NN=C1c1ccccc1 (configuration not stated)
8. CC1(C)N=C(N)N=C(N)N1c1ccc(OCCCCNC(=O)Nc2cccc(S(=O)(=O)F)c2)c(Cl)c1

["40.2 µM", "> 100 µM", "> 40.6 µM", "> 100 µM", "> 10 µM", "> 100 µM", "> 100 µM", "> 100 µM"]

Any idea what TGI came out for CO/C(=N\N=C(/c1ccccc1)C(F)(F)F)c1ccncc1 on IGROV1 ovarian? > 100 µM

Data provenance: PubChem BioAssay (NCI)
